As shown below, each of these binders has a reported MRC5 IC50 value.
tested_target: Recombinant human IL-1β (BioLegend 579404) (human, UniProt P01584 117-269)
method_summary: cell-based or functional assay
Starred links: 1 amine or outer side, 2 acyl side, 3 side chain; linkers in the order of their positions; H or OH if unused. Non-standard residues stand in square brackets, D forms with d. TyrEtNAc = (2S)-3-[4-(2-acetamidoethoxy)phenyl]-2-amino-propanoic acid, CC(=O)NCCOc1ccc(C[C@H](N[*:1])C(=O)[*:2])cc1; Phe(4-(5-CO2H-2-pyrimidyl)) = N[C@@H](Cc1ccc(-c2ncc(C(=O)O)cn2)cc1)C(=O)O; dPro(4R-(4-pyridylmethyl)) = O=C(O)[C@H]1C[C@@H](Cc2ccncc2)CN1; Trp(βS-Me,4-F) = C[C@@H](c1c[nH]c2cccc(F)c12)[C@H](N)C(=O)O; Ala(1-bicyclo(1.1.1)pentyl) = N[C@@H](CC12CC(C1)C2)C(=O)O; dPro(4R-Bzl(4-F)) = O=C(O)[C@H]1C[C@@H](Cc2ccc(F)cc2)CN1; Ala(pyrimidin-5-yl) = N[C@@H](Cc1cncnc1)C(=O)O; Phe(4-COOH) = N[C@@H](Cc1ccc(C(=O)O)cc1)C(=O)O; Pro(cis-4-F) = O=C(O)[C@@H]1C[C@H](F)CN1; 4Pal = N[C@@H](Cc1ccncc1)C(=O)O; Dab = NCC[C@H](N)C(=O)O; Aib = CC(C)(N)C(=O)O
observed_property: MRC5 IC50

binder="cyclo([Phe(4-(5-CO2H-2-pyrimidyl))][Ala(1-bicyclo(1.1.1)pentyl)][Phe(4-COOH)]G[Pro(cis-4-F)][Trp(βS-Me,4-F)][Aib]EW[Aib][4Pal]Q[Dab]G[dPro(4R-(4-pyridylmethyl))]) [SEQ ID NO: 86]" observed_property="MRC5 IC50" meas_value="0.075 nM"
binder="cyclo([TyrEtNAc][4Pal][Phe(4-COOH)]G[Pro(cis-4-F)][Trp(βS-Me,4-F)][Aib]SW[Aib][Ala(pyrimidin-5-yl)]Q[Dab]G[dPro(4R-Bzl(4-F))]) [SEQ ID NO: 16]" observed_property="MRC5 IC50" meas_value="0.051 nM"
